Tested on: KM12
runDescription: NCI tumour cell line growth inhibition, 48 h
Activity calls are given as the source filed them. Cut-off read from the data, not from the text of the source: active = GI50 up to about 1.1 µM and inactive = higher.
Your answer must be one of the following: 1 (yes) (active), 0 (no) (inactive)

// known answers, use as guide
[[record]]
compound = "CC(=O)Oc1ccn2nc(C)c(Br)c2c1Br"
testedsystem = "KM12"
labelvalue = "0 (no)"

[[record]]
compound = "COc1ccc(OC)c(Cc2cnc3nc(N)nc(N)c3c2C)c1 [PIRITREXIM ISETHIONATE]"
testedsystem = "KM12"
labelvalue = "1 (yes)"

[[record]]
compound = "Oc1ccccc1/C=N/Nc1nc(N/N=C/c2ccccc2O)nc(N/N=C/c2ccccc2O)n1"
testedsystem = "KM12"
labelvalue = "0 (no)"

[[record]]
compound = "CCCCCCc1nn2c(-c3ccncc3)nnc2s1"
testedsystem = "KM12"
labelvalue = "0 (no)"

[[record]]
compound = "CC(C)=CCC/C(=C/CC/C(C)=C/CCc1ccoc1)C(=O)O"
testedsystem = "KM12"
labelvalue = "0 (no)"

[[record]]
compound = "S=C1SC(=N\\c2ccccc2)/C(=N/c2ccccc2)N1c1ccccc1"
testedsystem = "KM12"
labelvalue = "0 (no)"

[[record]]
compound = "CC1OC(O[C@H]2CC[C@]3(C)[C@H]4CC=C5[C@@H]6[C@@H](C)[C@H](C)CC[C@]6(C(=O)OC6OC(CO)C(O)C(O)C6O)CC[C@@]5(C(=O)O)[C@]4(C)CC[C@H]3C2(C)C)C(O)C(O)C1O (stereo partly drawn)"
testedsystem = "KM12"
labelvalue = "0 (no)"

[[record]]
compound = "c1ccc(/C(=N/Nc2ccccn2)c2cccnn2)cc1"
testedsystem = "KM12"
labelvalue = "0 (no)"

[[record]]
compound = "O=C1Nc2ccccc2/C1=C\\c1c(-c2ccccc2)nc2n1CCS2"
testedsystem = "KM12"
labelvalue = "0 (no)"

[[record]]
compound = "O=C1C=CC(=O)c2c1ccc1c3ccccc3n(Cc3ccccc3)c21"
testedsystem = "KM12"
labelvalue = "0 (no)"


Recorded test outcome, item COc1ccc(C(OCC2OC(n3cc(C)c(=O)[nH]c3=O)CC2n2cc(Cn3cc(I)c(=O)[nH]c3=O)nn2)(c2ccccc2)c2ccccc2)cc1 (stereo not drawn)
0 (no)

Recorded test outcome, item `CS/C(C)=N/OC(=O)NCCCCNc1ccc(N=[N+]=[N-])cc1`
0 (no)

Recorded test outcome, item Cc1ccc(OP(=O)(Oc2ccc(C)cc2)N2C=Cc3ccccc3C2C#N)cc1 (stereo not drawn)
0 (no)

Recorded test outcome, item `Cc1ccccc1NC(=O)CC(=O)n1nc(-c2ccccc2)c(/N=N/c2ccc([N+](=O)[O-])cc2)c1-c1ccccc1`
0 (no)

* * *

Tested on: KM-20L2
runDescription: NCI tumour cell line growth inhibition, 48 h
Calls of active or inactive are those of the source. Rule as the data show it: active = GI50 up to about 1.1 µM and inactive = higher.
GI50 listing for selected molecules.

[[record]]
molecule = "CCc1nc2ccc(NCCN(C)C)c3c(=O)c4ccccc4n1c23"
testedsystem = "KM-20L2"
experimentalreadout = "GI50"
endpointresult = "0.741 µM (active)"

[[record]]
molecule = "CCOc1ccc(NC(=O)C(=O)NO)cc1"
testedsystem = "KM-20L2"
experimentalreadout = "GI50"
endpointresult = "> 100 µM (inactive)"


Query COCCNC(=O)C1C(=O)N(CCOC)C(=O)/C1=N/N (stereo unspecified) on KM-20L2; GI50 returned: > 100 µM (inactive)

Query `CS/C(C)=N/OC(=O)NCCCCNc1ccc(N=[N+]=[N-])cc1` on KM-20L2; GI50 returned: 41.5 µM (inactive)

Query `CCOC(=O)Cn1c(=O)n(C)c(=O)c2c1ncn2Cc1ccccc1` on KM-20L2; GI50 returned: > 100 µM (inactive)
